test system: RXRa homodimer (NR concentration 180 nM); assay: PBM binding z-score (relative to random genomic background probes); higher = stronger binding; sequences stand for … in GC…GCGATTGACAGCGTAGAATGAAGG
Readout kind: PBM binding z-score
Lab note: write the figure by itself, no unit.

Data request: So what does the record say about PBM binding z-score for "CCGACTAGGGCATAAGGTTACCATAAGCCAGCCC" ?
Data returned: 1.35

Data request: So what does the record say about PBM binding z-score for "ATCTCTAGGTAACCCAGTTCAGTGAATGCCGAAC" ?
Data returned: 0.828

Data request: So what does the record say about PBM binding z-score for "GCAGAGAGGTGAAACGCAGGTAACTCAGGGTGGC" ?
Data returned: 1.79

Data request: So what does the record say about PBM binding z-score for "CGAATGAGGGCATGAGTTGATAGCAAATGCCGAT" ?
Data returned: 1.03

Data request: So what does the record say about PBM binding z-score for "TCGAGTAGGTTAGTCGGGGCATTCACCCAACATA" ?
Data returned: 0.097

Data request: So what does the record say about PBM binding z-score for "CCTGCTAGGTCAGGGTCAGCTAATCTACAGTATG" ?
Data returned: 4.03

----------
What PBM binding z-score was measured for each of the following?
tested on: PPARg:RXRa DBDmut IVT, anti-RXR (DBD mutation: RXRa K156A/R161A, NR concentration 270 nM, RXRa partner concentration 90 nM); experiment: PBM binding z-score (relative to random genomic background probes); higher = stronger binding; sequences stand for … in GC…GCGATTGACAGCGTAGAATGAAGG
Lab note: write the figure by itself, no unit.

Data request: So what does the record say about PBM binding z-score for "CCCACTGGGCCAAAAAGGTCATTGATGCCGATAA" ?
Data returned: 2.99

Data request: So what does the record say about PBM binding z-score for "ATATGTAGGTTGGCTGGGGTCATTCAGACTAGGC" ?
Data returned: 2.56

Data request: So what does the record say about PBM binding z-score for "GCTACTAGGTCAGGTTGGTCAGCTAACGGGTACG" ?
Data returned: 7.04

Data request: So what does the record say about PBM binding z-score for "GCTGCTAGGTCTACTGATGGTCAGCTAAAGCTCG" ?
Data returned: 0.214

Data request: So what does the record say about PBM binding z-score for "CTCGAAAGATCGGTTGAGGTGAGTATACGGATAA" ?
Data returned: -0.303

Data request: So what does the record say about PBM binding z-score for "CCTTACGGGTCACTCCAGGTTATAGCCTCGGAGT" ?
Data returned: 2.45

----------
test system: VDR:RXRa (NR concentration 270 nM, RXRa partner concentration 90 nM); assay: PBM binding z-score (relative to random genomic background probes); higher = stronger binding; sequences stand for … in GC…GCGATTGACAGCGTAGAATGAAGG
Class definitions on PBM binding z-score: range A: < 0.9; range B: ≥ 0.9 and < 3; range C: ≥ 3

Data request: // return the class label for "GCTTGTAGATCAAGGTTAAAAAAGACTAAGCTAA"
Data returned: range A

Data request: // return the class label for "CAAACTAGGTCACAGAGGTCAAAGCCCGTGCGTA"
Data returned: range C

Data request: // return the class label for "CCTCACGGGTCAAGGTTATAGCACGGGTGGTACG"
Data returned: range C

Data request: // return the class label for "ATATGTAGGTTAGCTGGGGTCATTGAGACTAGGC"
Data returned: range C

Data request: // return the class label for "AGAATGAGGTTAAGATCAGGGACACAGAATACAT"
Data returned: range B

Data request: // return the class label for "ATCGAAAGGTCGAGGCGAGTATAGAGAAAGGGAA"
Data returned: range B

Data request: // return the class label for "CGAACTAGGTCATCCAAGACAGTGAATACATTGA"
Data returned: range B

Data request: // return the class label for "TCTTGTTGATCAACAGGAGGTTAAGAAAGATCGA"
Data returned: range A

Data request: // return the class label for "GCAGACAGGTGAAACGAAGGTAACTCAGGGTGGC"
Data returned: range A

Data request: // return the class label for "CCTTACGGGTCACGCGGTTATAGCACGACGAGCG"
Data returned: range C

Data request: // return the class label for "CGTCAAAGTTCGAGGTAACGTAACAGAAAGCAGC"
Data returned: range B
